# PROCEDURE_SUMMARY: Differential nuclear staining cytotoxicity assay, A549
# Format: cell-based
# CONDITION: human; CC50 in non-cancerous cells divided by CC50 in A549; read-out: Selective cytotoxicity index (SCI)
MEASURED_PROPERTY: selectivity ratio
Give bare numbers.

[in] Fill in: selectivity ratio of COc1ccc(-c2cnn(CC(=O)Nc3cnn(C)n3)c2)cc1C(F)(F)F [PTA-1] is ___
[out] 105

----------
# PROCEDURE_SUMMARY: Differential nuclear staining cytotoxicity assay, MDA-MB-231
# Type: cell-based
# CONDITION: human; CC50 in MCF10A divided by CC50 in MDA-MB-231; read-out: Selective cytotoxicity index (SCI)
MEASURED_PROPERTY: selectivity ratio
Numbers only.

[in] Fill in: selectivity ratio of COc1ccc(-c2cnn(CC(=O)Nc3cnn(C)n3)c2)cc1C(F)(F)F is ___
[out] 4.73

Cited source for all entries: patent US20240139157A1
